- test-method-notes: qHTS RealTime-Glo MT Cell Viability Assay in HEK293 cells - 0 hour (AID 1224880); further: nearly all actives have a fitted effect of over 45% in size
- measurement-parameters: RealTime-Glo luminescence; series mostly up to 76.8 µM
Results filed as inconclusive are left out. Calls of active or inactive are those of the source. The call rests on the fitted dose curve; in most records, active means well fitted cell-killing curve with a large enough effect in the repeat runs; inconclusive means weak or mixed curves, or effect the other way; inactive means flat fitted curve, though single readings scatter.
Outcome (select one): Y (active), N (inactive)

Solved cases (10 shown):
>>> label("OCCOCC#CCOCCO")
"N"
>>> label("CN1C(=O)OC(C)(C)C1=O")
"N"
>>> label("O=C1NC(=O)c2cc([N+](=O)[O-])ccc21")
"N"
>>> label("O=c1c(O)c(-c2ccc(O)cc2)oc2cc(O)cc(O)c12")
"N"
>>> label("COC(=O)C1=C(C)NC(C)=C(C(=O)O[C@@H]2CCCN(Cc3ccccc3)C2)[C@@H]1c1cccc([N+](=O)[O-])c1")
"Y"
>>> label("COc1cc(N)c(Cl)cc1C(=O)NC1CCN(CCCOc2ccc(F)cc2)CC1OC (configuration not stated)")
"N"
>>> label("Nc1nc2ccc([N+](=O)[O-])cc2s1")
"N"
>>> label("CCC1(CO)COCOC1")
"N"
>>> label("Cc1ccccc1S")
"N"
>>> label("C[C@]12CC[C@@H]3c4ccc(O)cc4CC[C@H]3[C@@H]1CC[C@@H]2OC(=O)CCC1CCCC1")
"N"

In: Test call for this compound, please: CCOc1ccc(Cc2nccc3cc(OCC)c(OCC)cc23)cc1OCC
Out: N

In: Which outcome was entered for the compound Oc1cccc(O)c1O in this test?
Out: N
